All values here come from ChEMBL document CHEMBL1127327.

- Tested on: CCRF-CEM
- Experiment: Effective concentration against HIV-2 induced cytopathicity in CEM cells
- Type: functional, cell-based
- Protocol conditions: Homo sapiens
pEC50: −log10 of the molar value.
Known pEC50 of a selection of molecules

Molecule	pEC50
CC(C)(C)[Si](C)(C)OC[C@H]1O[C@@H](n2ccc(N)nc2=O)[C@H](O[Si](C)(C)C(C)(C)C)[C@]12OS(=O)(=O)C=C2N	< 3.46
CC(C)(C)[Si](C)(C)OC[C@H]1O[C@@H](n2c(C#N)cc(=O)[nH]c2=O)[C@H](O[Si](C)(C)C(C)(C)C)[C@]12OS(=O)(=O)C=C2N	< 5.18
Cc1cn([C@@H]2O[C@H](CO[Si](C)(C)C(C)(C)C)C3(OS(=O)(=O)C=C3N)[C@H]2O[Si](C)(C)C(C)(C)C)c(=O)[nH]c1=O (stereo partly specified)	< 5.15
CNc1ccn([C@@H]2O[C@H](CO[Si](C)(C)C(C)(C)C)[C@@]3(OS(=O)(=O)C=C3N)[C@H]2O[Si](C)(C)C(C)(C)C)c(=O)n1	< 5.17
CC(C)(C)[Si](C)(C)OC[C@H]1O[C@@H](n2cc(C(F)(F)F)c(=O)[nH]c2=O)[C@H](O[Si](C)(C)C(C)(C)C)[C@]12OS(=O)(=O)C=C2N	< 5.21
CC(C)(C)[Si](C)(C)OC[C@H]1O[C@@H](n2cc(I)c(=O)[nH]c2=O)[C@H](O[Si](C)(C)C(C)(C)C)[C@]12OS(=O)(=O)C=C2N	< 5.24
CNc1nc(=O)n([C@@H]2O[C@H](CO[Si](C)(C)C(C)(C)C)[C@@]3(OS(=O)(=O)C=C3N)[C@H]2O[Si](C)(C)C(C)(C)C)cc1C	< 4.48
CC(C)(C)[Si](C)(C)OC[C@H]1O[C@@H](n2cc(F)c(=O)[nH]c2=O)[C@H](O[Si](C)(C)C(C)(C)C)[C@]12OS(=O)(=O)C=C2N	< 5.17
CN(C)c1ccn([C@@H]2O[C@H](CO[Si](C)(C)C(C)(C)C)[C@@]3(OS(=O)(=O)C=C3N)[C@H]2O[Si](C)(C)C(C)(C)C)c(=O)n1	< 3.78
Cc1cn([C@@H]2O[C@H](CO[Si](C)(C)C(C)(C)C)[C@@]3(OS(=O)(=O)C=C3N)[C@H]2O[Si](C)(C)C(C)(C)C)c(=O)nc1N	< 4.87
COC(=N)c1cc(=O)[nH]c(=O)n1[C@@H]1O[C@H](CO[Si](C)(C)C(C)(C)C)[C@@]2(OS(=O)(=O)C=C2N)[C@H]1O[Si](C)(C)C(C)(C)C	< 5.20

----------
- Test system: CCRF-CEM
- Experiment: Effective concentration against HIV-1 induced cytopathicity in CEM cells
- Assay type: functional, cell-based
- Protocol conditions: Homo sapiens
Kindly apply the following: 1.0 if EC50 is less than 1 µM, 0.0 in every other case.

Compound	Class label
CC(C)(C)[Si](C)(C)OC[C@H]1O[C@@H](n2cc(F)c(=O)[nH]c2=O)[C@H](O[Si](C)(C)C(C)(C)C)[C@]12OS(=O)(=O)C=C2N	1.0
CNc1ccn([C@@H]2O[C@H](CO[Si](C)(C)C(C)(C)C)[C@@]3(OS(=O)(=O)C=C3N)[C@H]2O[Si](C)(C)C(C)(C)C)c(=O)n1	0.0
CC(C)(C)[Si](C)(C)OC[C@H]1O[C@@H](n2ccc(N)nc2=O)[C@H](O[Si](C)(C)C(C)(C)C)[C@]12OS(=O)(=O)C=C2N	0.0
CN(C)c1ccn([C@@H]2O[C@H](CO[Si](C)(C)C(C)(C)C)[C@@]3(OS(=O)(=O)C=C3N)[C@H]2O[Si](C)(C)C(C)(C)C)c(=O)n1	1.0
Cc1cn([C@@H]2O[C@H](CO[Si](C)(C)C(C)(C)C)C3(OS(=O)(=O)C=C3N)[C@H]2O[Si](C)(C)C(C)(C)C)c(=O)[nH]c1=O (stereo partly specified)	1.0
Cc1cn([C@@H]2O[C@H](CO[Si](C)(C)C(C)(C)C)[C@@]3(OS(=O)(=O)C=C3N)[C@H]2O[Si](C)(C)C(C)(C)C)c(=O)nc1N	1.0
CC(C)(C)[Si](C)(C)OC[C@H]1O[C@@H](n2cc(C(F)(F)F)c(=O)[nH]c2=O)[C@H](O[Si](C)(C)C(C)(C)C)[C@]12OS(=O)(=O)C=C2N	1.0
CC(C)(C)[Si](C)(C)OC[C@H]1O[C@@H](n2c(C#N)cc(=O)[nH]c2=O)[C@H](O[Si](C)(C)C(C)(C)C)[C@]12OS(=O)(=O)C=C2N	0.0
CNc1nc(=O)n([C@@H]2O[C@H](CO[Si](C)(C)C(C)(C)C)[C@@]3(OS(=O)(=O)C=C3N)[C@H]2O[Si](C)(C)C(C)(C)C)cc1C	1.0
COC(=N)c1cc(=O)[nH]c(=O)n1[C@@H]1O[C@H](CO[Si](C)(C)C(C)(C)C)[C@@]2(OS(=O)(=O)C=C2N)[C@H]1O[Si](C)(C)C(C)(C)C	0.0
CC(C)(C)[Si](C)(C)OC[C@H]1O[C@@H](n2cc(I)c(=O)[nH]c2=O)[C@H](O[Si](C)(C)C(C)(C)C)[C@]12OS(=O)(=O)C=C2N	1.0
